experimental-details: Oral bioavailability in rat at 10 mg/mL
Type: ADME, organism-based
applied-conditions: in vivo
value-type: bioavailability (%)
The figure you give is taken to be in %; do not add the unit.

Record excerpt, results attached:
O=C(NO)C1(S(=O)(=O)c2ccc(Oc3ccc(C(F)(F)F)cc3)cc2)CCOCC1 = 33
O=C(NO)C1(S(=O)(=O)c2ccc(Oc3cccc(C(F)(F)F)c3)cc2)CCOCC1 = 18.3

Name the reported bioavailability value associated with the compound O=C(NO)C1(S(=O)(=O)c2ccc(Oc3ccc(SC(F)(F)F)cc3)cc2)CCOCC1 49

Name the reported bioavailability value associated with the compound O=C(NO)C1(S(=O)(=O)c2ccc(Oc3ccccc3)cc2)CCOCC1 5.8

----------
target-system: 72 kDa type IV collagenase (Homo sapiens, UniProt P08253)
Sequence (P08253 whole entry): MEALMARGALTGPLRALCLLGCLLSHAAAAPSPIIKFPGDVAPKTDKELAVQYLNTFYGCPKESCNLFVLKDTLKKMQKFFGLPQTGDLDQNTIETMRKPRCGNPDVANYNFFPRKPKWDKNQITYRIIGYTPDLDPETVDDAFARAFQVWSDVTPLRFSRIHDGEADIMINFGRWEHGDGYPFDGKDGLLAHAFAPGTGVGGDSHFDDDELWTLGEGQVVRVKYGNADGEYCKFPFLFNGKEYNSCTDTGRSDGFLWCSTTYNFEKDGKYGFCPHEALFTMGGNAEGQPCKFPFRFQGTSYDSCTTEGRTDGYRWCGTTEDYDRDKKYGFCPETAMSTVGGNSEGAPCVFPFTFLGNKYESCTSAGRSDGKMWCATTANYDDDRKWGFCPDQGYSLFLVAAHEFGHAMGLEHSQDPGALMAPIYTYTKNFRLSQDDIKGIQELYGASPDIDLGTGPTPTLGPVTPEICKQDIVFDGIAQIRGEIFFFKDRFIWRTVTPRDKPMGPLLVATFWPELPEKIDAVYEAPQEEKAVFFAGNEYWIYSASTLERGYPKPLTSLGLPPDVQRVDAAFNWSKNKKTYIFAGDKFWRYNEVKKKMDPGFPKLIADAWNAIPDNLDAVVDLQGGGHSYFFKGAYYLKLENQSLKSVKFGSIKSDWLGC
value-type: IC50

# returns recorded IC50 (system: 72 kDa type IV collagenase (Homo sapiens, UniProt P08253)) for O=C(NO)C1(S(=O)(=O)c2ccc(Oc3ccc(C(F)(F)F)cc3)cc2)CCN(C2CC2)CC1 100 pM

# returns recorded IC50 (system: 72 kDa type IV collagenase (Homo sapiens, UniProt P08253)) for O=C(NO)C1(S(=O)(=O)c2ccc(Oc3ccc(OC(F)(F)F)cc3)cc2)CCN(C2CC2)CC1 < 100 pM

# returns recorded IC50 (system: 72 kDa type IV collagenase (Homo sapiens, UniProt P08253)) for CN1CCC(C(=O)NO)(S(=O)(=O)c2ccc(Oc3ccc(OC(F)(F)F)cc3)cc2)CC1 < 100 pM

# returns recorded IC50 (system: 72 kDa type IV collagenase (Homo sapiens, UniProt P08253)) for O=C(NO)C1(S(=O)(=O)c2ccc(Oc3ccc(O)cc3)cc2)CCOCC1 200 pM

# returns recorded IC50 (system: 72 kDa type IV collagenase (Homo sapiens, UniProt P08253)) for O=C(NO)C1(S(=O)(=O)c2ccc(Oc3ccc(C(F)(F)F)cc3)cc2)CCOCC1 100 pM

----------
Lab note: log10 IC50 readings collected with Collagenase 3 (Homo sapiens, UniProt P45452) for the following compounds.
Kindly note that the scale is log10 and the underlying IC50 is in nM.

Record excerpt, results attached:
O=C(NO)C1(S(=O)(=O)c2ccc(Oc3ccc(C(F)(F)F)cc3)cc2)CCN(CCN2CCOCC2)CC1 = -0.46
CC(C)c1ccc(Oc2ccc(S(=O)(=O)C3(C(=O)NO)CCN(C(C)C)CC3)cc2)cc1 = 0.43
O=C(NO)C1(S(=O)(=O)c2ccc(Oc3ccc4c(c3)OCCO4)cc2)CCN(C2CC2)CC1 = -0.30
O=C(NO)C1(S(=O)(=O)c2ccc(Oc3ccc(-c4ccccc4)cc3)cc2)CCOCC1 = -0.60

From here, focus on the item given below.
# returns recorded log10 IC50 (system: Collagenase 3 (Homo sapiens, UniProt P45452)) for CC(C)Oc1ccc(Oc2ccc(S(=O)(=O)C3(C(=O)NO)CCOCC3)cc2)cc1 -1.00

----------
experimental-details: Oral bioavailability in rat at 20 mg/kg
Type: ADME, organism-based
applied-conditions: in vivo
Classification field: class 1 = bioavailability at or over 20%; class 0 = bioavailability under 20%.

Example cases with answers are listed next.
CC(=O)N1CCC(C(=O)NO)(S(=O)(=O)c2ccc(Oc3ccc(OC(F)(F)F)cc3)cc2)CC1 = class 0
O=C(NO)C1(S(=O)(=O)c2ccc(Oc3ccc(C(F)(F)F)cc3)cc2)CCN(C2CC2)CC1 = class 1
CC(C)N1CCC(C(=O)NO)(S(=O)(=O)c2ccc(Oc3ccc(C(F)(F)F)cc3)cc2)CC1 = class 1
O=C(NO)C1(S(=O)(=O)c2ccc(Oc3ccc4c(c3)OCCO4)cc2)CCN(C2CC2)CC1 = class 0

Turning to the following molecule.
Is it the case that O=C(NO)C1(S(=O)(=O)c2ccc(Oc3ccc(OC(F)(F)F)cc3)cc2)CCN(Cc2ccccn2)CC1 has bioavailability reaching or exceeding 20%? class 1

Origin of the recorded values: ChEMBL document CHEMBL1800055
